# assayed_target: MAP4K-1 enzyme (Homo sapiens, UniProt Q92918)
# Sequence (Q92918 whole entry): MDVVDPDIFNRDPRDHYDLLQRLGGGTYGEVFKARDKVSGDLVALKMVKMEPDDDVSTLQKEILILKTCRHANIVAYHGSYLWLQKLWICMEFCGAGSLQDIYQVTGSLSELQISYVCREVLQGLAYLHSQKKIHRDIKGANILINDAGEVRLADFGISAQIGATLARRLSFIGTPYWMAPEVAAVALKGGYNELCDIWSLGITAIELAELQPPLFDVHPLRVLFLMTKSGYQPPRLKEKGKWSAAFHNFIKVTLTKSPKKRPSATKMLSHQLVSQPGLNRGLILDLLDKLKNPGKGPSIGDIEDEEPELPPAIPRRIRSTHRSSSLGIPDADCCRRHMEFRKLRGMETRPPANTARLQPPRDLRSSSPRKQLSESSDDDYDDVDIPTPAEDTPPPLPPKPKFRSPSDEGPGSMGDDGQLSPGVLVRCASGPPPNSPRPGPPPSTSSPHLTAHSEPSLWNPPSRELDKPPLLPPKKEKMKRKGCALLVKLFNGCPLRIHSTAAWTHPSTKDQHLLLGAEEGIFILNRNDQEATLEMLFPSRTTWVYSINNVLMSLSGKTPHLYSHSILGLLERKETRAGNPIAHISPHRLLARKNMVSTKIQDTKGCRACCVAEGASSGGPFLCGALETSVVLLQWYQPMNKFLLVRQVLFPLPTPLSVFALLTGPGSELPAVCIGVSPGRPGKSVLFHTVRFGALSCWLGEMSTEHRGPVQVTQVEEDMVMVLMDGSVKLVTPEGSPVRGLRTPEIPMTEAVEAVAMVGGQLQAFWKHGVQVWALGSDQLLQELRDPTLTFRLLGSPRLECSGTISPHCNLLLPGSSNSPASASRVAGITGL
# measurement_description: FRET one step binding assay (tracer displacement)
# stated_conditions: read-out: IC50
// reported IC50 per item

Known results for compounds:
QUERY: Entry COCCOc1ccc(Nc2nc(Nc3cc4c(cc3OC)CCN(C)C4)ncc2Cl)c(P(C)(C)=O)c1 [Example 50] has what IC50?
RESULT: < 50 nM

QUERY: Give its IC50 value. Item: COc1cc2c(cc1Nc1ncc(Cl)c(N=S(C)(=O)c3ccccc3P(C)(C)=O)n1)CN(C)CC2 (centres unmarked) [Example 57]
RESULT: 50 to 100 nM

More entries:
QUERY: Which IC50 value belongs to COc1cc2c(cc1Nc1ncc(Cl)c(Nc3ccc(C(F)(F)F)cc3P(C)(C)=O)n1)CN(C)CC2 [Example 55] ?
RESULT: < 50 nM

QUERY: Sample COc1cc2c(cc1Nc1ncc(Cl)c(Nc3ccc(OC4COC4)cc3P(C)(C)=O)n1)CN(C)CC2 [Example 51] — what was its IC50?
RESULT: < 50 nM

QUERY: Query (compound): COc1cc2c(cc1Nc1ncc(Cl)c(Nc3ccc(S(C)(=N)=O)cc3P(C)(C)=O)n1)CN(C)CC2 (centres unmarked) [Example 58] ; field requested: IC50
RESULT: < 50 nM

---

Recorded measurements of inhibition at 10 µM, one per entry
# assayed_target: MAP4K-1 enzyme (Homo sapiens, UniProt Q92918)
# measurement_description: FRET one step binding assay (tracer displacement)
# stated_conditions: 10 μM compound
Counter-ions that a name gives are not always drawn.
Provide the reading as a plain figure in %.

QUERY: Recorded inhibition at 10 µM for `COc1cc2c(cc1Nc1ncc(Cl)c(Nc3ccc(N(C)C(=O)C(F)F)cc3P(C)(C)=O)n1)CN(C)CC2` with MAP4K-1 enzyme (Homo sapiens, UniProt Q92918), please?
RESULT: 90

QUERY: What reported inhibition at 10 µM corresponds to COc1cc2c(cc1Nc1ncc(Cl)c(Nc3ccc(OS(=O)(=O)F)nc3P(C)(C)=O)n1)CN(C)CC2 [Example 21, dihydrochloride] on MAP4K-1 enzyme (Homo sapiens, UniProt Q92918)?
RESULT: 81.6

QUERY: Test system MAP4K-1 enzyme (Homo sapiens, UniProt Q92918); read-out inhibition at 10 µM; what value for COc1cc2c(cc1Nc1ncc(Cl)c(Nc3c(C)cc(OS(=O)(=O)F)cc3P(C)(C)=O)n1)CN(C)CC2 [Example 15, dihydrochloride] ?
RESULT: 91.8

QUERY: GET /values?readout=inhibition at 10 µM&system=MAP4K-1 enzyme (Homo sapiens, UniProt Q92918)&item= COc1cc2c(cc1Nc1ncc(Cl)c(Nc3ccc(NC(=O)CCl)cc3P(C)(C)=O)n1)CN(C)CC2 [Example 56, hydrochloride]
RESULT: 88.2

QUERY: Find the measured inhibition at 10 µM: item COc1cc2c(cc1Nc1ncc(Cl)c(Nc3ccc(N(C)S(=O)(=O)F)cc3P(C)(C)=O)n1)CN(C)CC2 [Example 43, dihydrochloride] , target or system MAP4K-1 enzyme (Homo sapiens, UniProt Q92918).
RESULT: 80.5

QUERY: Request - read-out inhibition at 10 µM | tested on MAP4K-1 enzyme (Homo sapiens, UniProt Q92918) | compound COc1cc2c(cc1Nc1ncc(Cl)c(N=S(C)(=O)c3ccccc3P(C)(C)=O)n1)CN(C)CC2 (stereo not shown)
RESULT: 79.3

QUERY: What inhibition at 10 µM appears in the records for this compound with MAP4K-1 enzyme (Homo sapiens, UniProt Q92918)? CP(C)(=O)c1cc(OS(=O)(=O)F)ccc1Nc1nc(Nc2cc3n(n2)CCNC3)ncc1Cl [Example 42, dihydrochloride]
RESULT: 83

QUERY: Lab note: need inhibition at 10 µM with MAP4K-1 enzyme (Homo sapiens, UniProt Q92918) for entry COc1cc2c(cc1Nc1ncc(Cl)c(Nc3ccc(OS(=O)(=O)F)cc3P(C)(C)=O)n1)CNCC2 [Example 38, dihydrochloride] , please look it up.
RESULT: 85.7

---
QUERY: // fetch MAP4K-1 enzyme (Homo sapiens, UniProt Q92918) inhibition at 10 µM for CCN1CCc2cc(OC)c(Nc3ncc(Cl)c(Nc4ccc(OS(=O)(=O)F)cc4P(C)(C)=O)n3)cc2C1 [Example 9, dihydrochloride]
RESULT: 78.8

QUERY: Test system MAP4K-1 enzyme (Homo sapiens, UniProt Q92918); read-out inhibition at 10 µM; what value for COc1cc2c(cc1Nc1ncc(Cl)c(Nc3ccc(OS(=O)(=O)F)cc3P(C)(C)=O)n1)C(C)N(C)CC2 (single isomer, unassigned; isomer 1) [Example 29] ?
RESULT: 76.9

QUERY: Request - read-out inhibition at 10 µM | tested on MAP4K-1 enzyme (Homo sapiens, UniProt Q92918) | compound `COc1cc2c(cc1Nc1ncc(Cl)c(Nc3ccc(C(=O)N(C)CCF)cc3P(C)(C)=O)n1)CN(C)CC2`
RESULT: 85.5

QUERY: Record lookup: for MAP4K-1 enzyme (Homo sapiens, UniProt Q92918), what inhibition at 10 µM belongs to `COc1cc2c(cc1Nc1ncc(Cl)c(Nc3ccc(OCC(F)F)cc3P(C)(C)=O)n1)CN(C)CC2` ?
RESULT: 73.9

QUERY: Missing value: inhibition at 10 µM, MAP4K-1 enzyme (Homo sapiens, UniProt Q92918), entry COc1cc2c(cc1Nc1ncc(Cl)c(Nc3cc(F)c(OS(=O)(=O)F)cc3P(C)(C)=O)n1)CN(C)CC2 [Example 27, dihydrochloride] . Fill in?
RESULT: 82.6
